Where do the numbers come from? From paper PMC9736855.

// values below are reported EC50
Target: CDK16/Cyclin Y (Homo sapiens, UniProt Q00536)
Construct: Full-length kinases were obtained as plasmids cloned in frame with a terminal NanoLuc-fusion; CS1810C178 (CCNY); host or cells: HEK293T
Sequence (Q00536 whole entry, the tested form may be a part): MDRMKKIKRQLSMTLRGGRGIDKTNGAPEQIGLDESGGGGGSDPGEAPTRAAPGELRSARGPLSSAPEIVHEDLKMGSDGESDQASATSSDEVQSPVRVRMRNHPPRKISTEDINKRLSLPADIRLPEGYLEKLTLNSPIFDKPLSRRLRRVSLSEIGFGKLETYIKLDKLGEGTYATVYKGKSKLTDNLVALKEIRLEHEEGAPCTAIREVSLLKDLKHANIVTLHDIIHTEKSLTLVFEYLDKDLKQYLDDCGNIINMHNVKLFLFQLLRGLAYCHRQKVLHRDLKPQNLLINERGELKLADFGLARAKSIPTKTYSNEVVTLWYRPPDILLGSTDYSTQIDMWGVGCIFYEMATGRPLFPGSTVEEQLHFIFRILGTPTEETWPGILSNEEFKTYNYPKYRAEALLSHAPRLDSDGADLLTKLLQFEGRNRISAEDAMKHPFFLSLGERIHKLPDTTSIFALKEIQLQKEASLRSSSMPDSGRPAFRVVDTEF
Sequence (Q8ND76 2-341 partner limits assumed): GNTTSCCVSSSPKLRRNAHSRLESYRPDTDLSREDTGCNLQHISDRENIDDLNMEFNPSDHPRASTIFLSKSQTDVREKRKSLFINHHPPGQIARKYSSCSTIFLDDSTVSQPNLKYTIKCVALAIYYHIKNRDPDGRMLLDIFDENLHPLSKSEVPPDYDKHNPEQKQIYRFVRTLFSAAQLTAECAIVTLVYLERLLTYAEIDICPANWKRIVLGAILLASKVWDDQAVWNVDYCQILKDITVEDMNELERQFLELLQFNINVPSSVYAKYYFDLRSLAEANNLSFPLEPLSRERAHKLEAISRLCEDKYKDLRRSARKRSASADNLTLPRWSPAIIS
Test: NanoBRET
Type: cell-based
Details: Figure 7, 11-point dose-response in duplicates; read-out: NanoBRET EC50 ± SEM against CDK16
Field: numeric (nM). Do not append units.

[
  {
    "COMPOUND": "Cc1cnc(NCCOCCNC(=O)OC(C)(C)C)nc1Nc1cc(C2CC2)n[nH]1 [12d]",
    "STUDY_TARGET": "CDK16/Cyclin Y (Homo sapiens, UniProt Q00536)",
    "UNITS_OF_MEASURE": "nM",
    "EC50": 619
  },
  {
    "COMPOUND": "COC(=O)c1cc(Nc2nc(Nc3cccc(CCNC(=O)OC(C)(C)C)c3)ncc2Cl)[nH]n1 [22b]",
    "STUDY_TARGET": "CDK16/Cyclin Y (Homo sapiens, UniProt Q00536)",
    "UNITS_OF_MEASURE": "nM",
    "EC50": 3190
  },
  {
    "COMPOUND": "Cc1cc(Nc2ccnc(NCCCCCNC(=O)OC(C)(C)C)n2)[nH]n1 [38b]",
    "STUDY_TARGET": "CDK16/Cyclin Y (Homo sapiens, UniProt Q00536)",
    "UNITS_OF_MEASURE": "nM",
    "EC50": 253
  }
]

Data request: So what does the record say about EC50 for COC(=O)c1cc(Nc2ccnc(Nc3ccc(CCN)cc3)n2)n[nH]1 [compound 24] ?
Data returned: 2830

Data request: So what does the record say about EC50 for Cc1cnc(NCCCCCCNC(=O)OC(C)(C)C)nc1Nc1cc(C2CC2)n[nH]1 [12e] ?
Data returned: 191

Data request: So what does the record say about EC50 for COC(=O)c1cc(Nc2nc(NCCOCCNC(=O)OC(C)(C)C)ncc2Cl)[nH]n1 [22d] ?
Data returned: 25000

Data request: So what does the record say about EC50 for CC(C)(C)OC(=O)NCc1ccc(CNc2nccc(Nc3cc(C4CC4)n[nH]3)n2)cc1 [11f] ?
Data returned: 110

----------
// values below are reported ΔTm at 10 µM
Biological target: CDK16 (Homo sapiens, UniProt Q00536)
Construct: purchased in-house DSF panel (SGC Frankfurt)
Sequence (Q00536 163-478): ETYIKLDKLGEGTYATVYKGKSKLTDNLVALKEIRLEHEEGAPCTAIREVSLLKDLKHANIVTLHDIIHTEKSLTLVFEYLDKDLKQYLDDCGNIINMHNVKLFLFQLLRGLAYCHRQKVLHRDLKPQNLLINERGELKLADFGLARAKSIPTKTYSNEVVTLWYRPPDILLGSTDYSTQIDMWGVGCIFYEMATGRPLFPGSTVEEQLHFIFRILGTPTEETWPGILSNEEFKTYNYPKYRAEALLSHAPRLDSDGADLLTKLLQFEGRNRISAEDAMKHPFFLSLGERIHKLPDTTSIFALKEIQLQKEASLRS
Experiment: DSF
Type: binding
Details: 10 μM compound
Phrase the answer as number then unit, nothing more needed.

Look over these answered cases.
[
  {
    "COMPOUND": "COC(=O)c1cc(Nc2ccnc(NCc3ccc(NC(=O)OC(C)(C)C)cc3)n2)[nH]n1 [21i]",
    "STUDY_TARGET": "CDK16 (Homo sapiens, UniProt Q00536)",
    "OBSERVED_RESULT": "6.5 °C"
  },
  {
    "COMPOUND": "COC(=O)c1cc(Nc2ccnc(Nc3ccc(CCN)cc3)n2)n[nH]1 [compound 24]",
    "STUDY_TARGET": "CDK16 (Homo sapiens, UniProt Q00536)",
    "OBSERVED_RESULT": "2.4 °C"
  },
  {
    "COMPOUND": "CC(C)(C)OC(=O)NCCc1ccc(Nc2nccc(Nc3cc(C(C)(C)C)n[nH]3)n2)cc1 [40a]",
    "STUDY_TARGET": "CDK16 (Homo sapiens, UniProt Q00536)",
    "OBSERVED_RESULT": "4.4 °C"
  }
]

Data request: State its ΔTm at 10 µM on CDK16 (Homo sapiens, UniProt Q00536): CC(C)(C)OC(=O)NCCCCCCNc1nccc(Nc2cc(C3CC3)n[nH]2)n1 [11e]
Data returned: 8.9 °C
